# test-protocol: NCI Yeast Anticancer Drug Screen. Data for the rad50 strain (AID 155);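 also: 0% = growth of vehicle-only cultures of the same strain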
# conditions-used: S. cerevisiae rad50 strain growth inhibition; at 50.0 µM; active compounds read high
About 79,000 compounds went through this panel and 15% of them were active in at least one assay; those are over-represented in the sample as a whole.
This section presents molecules with their documented growth inhibition values.
quantity: growth inhibition (%)

molecule="NC(Cc1ccccc1)C(=O)Nc1ccccc1 (centres undefined)" reported_result=18.3
molecule="Cc1nn(C(=O)Cc2ccccc2)c2c1C(c1ccc([N+](=O)[O-])cc1)SC(N)=N2 (centres undefined)" reported_result=11.4
molecule=O=C(c1ccccc1Br)C(F)(F)F reported_result=-2.6
molecule="CC1OC(OC2C(OC(=O)[C@@H]3CC(C)(C)C[C@@H]4C5=CC[C@@H]6[C@@]7(C)C[C@H](O)[C@H](OC8OC(CO)C(O)C(O)C8O)[C@@](C)(CO)C7[C@H](O)C[C@@]6(C)[C@]5(C)C[C@@H](O)[C@H]43)OCC(O)C2O)C(O)C(O)C1O (some centres undefined)" reported_result=-23.9

* * *

# test-protocol: NCI Yeast Anticancer Drug Screen. Data for the rad50 strain (AID 155);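 also: 0% = growth of vehicle-only cultures of the same strain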
# conditions-used: S. cerevisiae rad50 strain growth inhibition; at 50.0 µM; active compounds read high
This is part of a sample that, as a whole, favours compounds with a hit. Of some 79,000 tested, about 15% had one in any assay.
This section presents molecules with their documented growth inhibition values.
quantity: growth inhibition (%)

molecule=CC(=O)Nc1ccc(/C=C2\C(=O)Nc3ccccc32)cc1 quantity="growth inhibition" reported_result=-15.4
molecule=O=C(NCCCCCCNC(=O)OCOC(=O)NCCCCCCNC(=O)Nc1ccc(SCCO)cc1)Nc1ccc(SCCO)cc1 quantity="growth inhibition" reported_result=15.7
molecule="OC1CC2c3ccccc3C1c1cccc[n+]12 (configuration not stated)" quantity="growth inhibition" reported_result=16.2
molecule=NC(=O)CCP(=O)(CCC(N)=O)CCC(N)=O quantity="growth inhibition" reported_result=3.8
molecule="CCC(C(O)c1ccccc1)[N+](=O)[O-] (configuration not stated)" quantity="growth inhibition" reported_result=54.8
molecule="CCCCCCCC1CCCC1=O (configuration not stated)" quantity="growth inhibition" reported_result=-32.1
molecule=Cc1nc(=S)c2[nH]c(=S)[nH]c2[nH]1 quantity="growth inhibition" reported_result=-2.7
molecule="Cc1cc(Cl)ccc1C1OC(=O)c2c1ccc1ccccc21 (configuration not stated)" quantity="growth inhibition" reported_result=16.9
molecule=NS(=O)(=O)c1ccc(N=Nc2nc3[nH]c(=O)[nH]c(=O)c3[nH]2)cc1 quantity="growth inhibition" reported_result=22.3
molecule="CC(c1ccccc1O)C1CCCCC1N=O (configuration not stated)" quantity="growth inhibition" reported_result=-0.15
molecule=CCCCOC(=O)c1ccc(OCCCC)cc1 quantity="growth inhibition" reported_result=23.6
molecule="CCC1OC(=O)C(CC)OC1=O (configuration not stated)" quantity="growth inhibition" reported_result=-5.75
molecule="O.O.[Cu+2].[Cu+2].[NH-]CCC(=O)[N-]C(Cc1cnc[nH]1)C(=O)O.[NH-]CCC(=O)[N-]C(Cc1cnc[nH]1)C(=O)O (configuration not stated)" quantity="growth inhibition" reported_result=-26.1
molecule=CCOC(=O)N1CCN(c2c(N)nc(C)[nH]c2=O)CC1 quantity="growth inhibition" reported_result=-49.6
molecule=ON(C(=S)Nc1ccccc1)c1ccccc1 quantity="growth inhibition" reported_result=20.9
molecule=O=C(/C=C(/CC(O)(c1ccccc1)c1ccccc1)Nc1ccccc1)c1ccccc1 quantity="growth inhibition" reported_result=10.3
molecule=COc1ccc(OCCO)cc1 quantity="growth inhibition" reported_result=-10.4
molecule=CC(C)c1nnc(NC(=O)CSC(=S)N2CCOCC2)s1 quantity="growth inhibition" reported_result=-23.9
molecule="O=C1C2=C(Nc3cc(Cl)ccc3N2)OC1c1ccc(C2OC3=C(Nc4ccc(Cl)cc4N3)C2=O)cc1 (configuration not stated)" quantity="growth inhibition" reported_result=-20.1
molecule="COC1/C=C/C(C)C(C(C)C(OC)C(C)CCC(=O)C(C)C(C/C=C/N(C)C=O)OC)OC(=O)/C=C/C=C(\\C)CC(OC)C(OC)C2=CC(=O)O[C@@H](C(C)C(OC)CC(OC)/C=C/C(C)C(O)C1)[C@H]2O (some centres not stated)" quantity="growth inhibition" reported_result=86.8
molecule=COc1ccc2c(c1)CN(Cc1ccccc1)CO2 quantity="growth inhibition" reported_result=3.85
molecule="C=C(Cl)/C(=C\\Cl)CCC(Cl)C(C)C (configuration not stated) (tested in a mixture with another compound)" quantity="growth inhibition" reported_result=68.5
molecule=O=C(O)CNC(=O)OCc1ccccc1 quantity="growth inhibition" reported_result=-35.9
molecule="CC(=O)OC1CC(c2ccccc2)N(C)C(c2ccccc2)C1 (configuration not stated)" quantity="growth inhibition" reported_result=6.85
molecule="CCOC(=O)c1cc2c(nc1C)-c1cc(Cl)ccc1OC2OCc1ccccc1 (configuration not stated)" quantity="growth inhibition" reported_result=-1.65
molecule="COc1ccc(NS(=O)c2ccc(Cl)cc2)cc1 (configuration not stated)" quantity="growth inhibition" reported_result=13
molecule=NOCc1cc(Cl)sc1Cl quantity="growth inhibition" reported_result=24.9
molecule=C=C(Nc1ccc([N+](=O)[O-])cc1[N+](=O)[O-])c1c/c(=N\NC(N)=S)c2ccccc2o1 quantity="growth inhibition" reported_result=25.1
molecule=CCOC(=O)Cc1c(C)cc(C)cc1C quantity="growth inhibition" reported_result=18.9
molecule="C=CC(C)(C)[C@@]12CC3C(=O)N[C@@H](Cc4ccccc4)C(=O)N3[C@@H]1N(C(C)=O)c1ccccc12 (some centres not stated)" quantity="growth inhibition" reported_result=73.2
molecule="O=c1[nH]c(=S)c2cncnc2n1C1OC(CO)C(O)C1O (configuration not stated)" quantity="growth inhibition" reported_result=15.8
molecule=CCN(CC)CCCNc1ccc2nnn3c4ccc(O)cc4c(=O)c1c23 quantity="growth inhibition" reported_result=-15.6
molecule=CC(=O)Nc1ccc(S(=O)(=O)Oc2noc3ccccc23)cc1 quantity="growth inhibition" reported_result=9.8
molecule=O=C(O)C(F)(F)C(F)(F)C(F)(F)C(F)(F)C(=O)O quantity="growth inhibition" reported_result=-1.85
molecule=CCN(CC)CCCS/C(N)=N\S(=O)(=O)c1ccc(N)cc1 quantity="growth inhibition" reported_result=-6.35
molecule=BrCCCOc1ccccc1 quantity="growth inhibition" reported_result=-23.7
molecule=NC(=O)CCN(CCC(N)=O)CCC(N)=O quantity="growth inhibition" reported_result=-9.25
molecule=Cc1cc(C)c2c(=O)cc(-c3cccc(Cl)c3)[nH]c2n1 quantity="growth inhibition" reported_result=15.6
molecule="O=C1c2cccc3c([N+](=O)[O-])ccc(c23)C(=O)N1CC1CCCO1 (configuration not stated)" quantity="growth inhibition" reported_result=71.3
molecule="CC(C)C(Br)C(=O)N1CCOCC1 (configuration not stated)" quantity="growth inhibition" reported_result=-0.4
molecule=CCCN(CCC)c1ccc(C(=O)c2ccccc2)cc1 quantity="growth inhibition" reported_result=-12.4
molecule=Cc1nc2ccccc2nc1CCO quantity="growth inhibition" reported_result=-12.7
molecule=CCOC(=O)C(=CNc1ccc2c(c1)OCO2)C(=O)OCC quantity="growth inhibition" reported_result=4.95
molecule="CCC(CC)(SC(C)C(N)=O)C(C)=O (configuration not stated)" quantity="growth inhibition" reported_result=0.35
molecule=CN(C(=O)C(Cl)Cl)c1ccc(-c2csc(Cc3ccccc3)n2)cc1 quantity="growth inhibition" reported_result=38.7
molecule=CS(=O)(=O)CCCCCCCCCCC(=O)O quantity="growth inhibition" reported_result=-5.4
molecule=COc1ccc(/C=C/c2ccc3ccccc3n2)cc1 quantity="growth inhibition" reported_result=3.3
